# Kd values compiled below
target: human vWF A1 domain (SEQ ID NO 5) (Homo sapiens, UniProt P04275, T1381A)
Sequence (P04275 with tags, fused parts or gaps T1381A): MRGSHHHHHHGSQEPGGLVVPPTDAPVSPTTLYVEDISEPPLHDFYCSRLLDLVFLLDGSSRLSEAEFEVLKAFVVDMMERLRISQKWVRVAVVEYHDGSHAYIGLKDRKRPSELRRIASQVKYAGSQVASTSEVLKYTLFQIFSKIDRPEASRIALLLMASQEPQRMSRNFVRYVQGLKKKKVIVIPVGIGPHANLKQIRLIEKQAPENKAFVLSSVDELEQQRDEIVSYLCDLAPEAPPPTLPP
assay remarks: dot blot KD determination, human vWF A1 domain
measurement parameters: read-out: Human A1 KD; rRdY aptamers; 6 point protein titration
Oligonucleotides are written 5' to 3', each unit as a sugar letter and its base; * is a phosphorothioate linkage, no mark a phosphodiester; rarer units and linkages stand in square brackets, end groups in braces. Plain capitals give the bases only. d = 2'-deoxy (DNA); r = 2'-OH (RNA)

>  <molecule>
AMX205.D11: rRdY aptamer clone (nucleic acid) rGrGrArGdCrGdCrAdCdTdCrArGdCdCrAdCrGrGdCrAdCrGrAdCrGrGdTrGrAdTrGrArAdTdTrArGdCrGdCrGrGdTrGdTdCrGrGdTrGrGdTrGdTdCrAdTdTdTdCrGrAdCdCdTdCdTdCdTrGdCdTrArGdC

>  <reading unit>
µM

>  <Kd>
0.124

$$$$
>  <molecule>
AMX206.E7: rRdY aptamer clone (nucleic acid) rGrGrArGdCrGdCrAdCdTdCrArGdCdCrAdCrGrGrArGdCrGdTdCrGrGdTrGrAdTrGrGrAdTdTrArGdCrGdCrGrGdCdTdCdCrGdTrGrGdTrAdCrAdCdCdTdTdTdCrGrAdCdCdTdCdTdCdTrGdCdTrArGdC

>  <reading unit>
µM

>  <Kd>
0.151

$$$$
>  <molecule>
AMX203.G9: rRdY aptamer clone (nucleic acid) rGrGrArGdCrGdCrAdCdTdCrArGdCdCrAdCrGrGrGrGdTrGrGrGdTrArGrAdCrGrGdCrGrGrGdTrAdTrGdTrGrGdCdTrGrGdTrGdTdCrGrArArGrGrGdTdTdTdCrGrAdCdCdTdCdTdCdTrGdCdTrArGdC

>  <reading unit>
µM

>  <Kd>
0.0013

$$$$

The values you see were collected from patent US7998940B2.
